Target: T1, B7-H3 on B7-H3-expressing CHO cells (Genescript) (UniProt Q5ZPR3 29-534, limits assumed)
T1 construct: whole, on cells; also called CHO-K1/B7-H3; MFI B7-H3
T1 sequence (looked up): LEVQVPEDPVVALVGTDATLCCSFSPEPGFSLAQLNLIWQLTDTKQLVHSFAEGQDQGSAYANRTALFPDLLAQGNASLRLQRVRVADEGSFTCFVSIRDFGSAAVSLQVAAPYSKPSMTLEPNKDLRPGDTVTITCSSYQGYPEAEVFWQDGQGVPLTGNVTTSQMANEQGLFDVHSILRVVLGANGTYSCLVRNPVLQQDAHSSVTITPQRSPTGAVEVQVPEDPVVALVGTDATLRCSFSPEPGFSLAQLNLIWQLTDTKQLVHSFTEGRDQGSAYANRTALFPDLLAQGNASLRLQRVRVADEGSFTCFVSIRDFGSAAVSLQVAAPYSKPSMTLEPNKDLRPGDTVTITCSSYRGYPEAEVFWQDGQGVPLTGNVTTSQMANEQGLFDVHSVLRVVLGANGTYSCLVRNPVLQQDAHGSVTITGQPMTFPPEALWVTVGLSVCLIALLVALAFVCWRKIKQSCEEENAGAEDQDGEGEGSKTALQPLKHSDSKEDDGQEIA
Assay: flow cytometry, B7-H3-expressing CHO cells, 10 ug/ml
assayEndpoint: MFI @ 10 ug/ml (MFI)
Express it in MFI; write the number only.

Query :: # get_value(readout='MFI @ 10 ug/ml', item= 40633p1.1.G7 (scFv, V domains shown, Tested as scFv-Fc (Expi293 supernatant)) VH: EVQLLESGGGLVQPGGSLRLSCAASGFTFSGSAMNWVRQAPGKGLEWVSAINSGGTTIYYADSVKGRFTVSRDNSKNTLYLQMNSLRAEDTAVYYCVKLDFYYGMDVWGEGTTVTVSS VL: QSVVTQPPSASGTPGQRVTVSCSGSSSNVGSKYVQWYQQLPGTAPKLLIYATDRRPSGVPDRFSGSKSGTSASLAISGLQSEDEADYYCASWDDSLNAWVFGGGTKLTVL )
Result :: 78300
